meta.source: patent US9688764B2

Target: T1, hPRLR.mFc (soluble dimeric human PRLR) (Homo sapiens, UniProt P16471)
T1 construct: dimeric (hPRLR.mFc)
T1 sequence (P16471 with tags, fused parts or gaps): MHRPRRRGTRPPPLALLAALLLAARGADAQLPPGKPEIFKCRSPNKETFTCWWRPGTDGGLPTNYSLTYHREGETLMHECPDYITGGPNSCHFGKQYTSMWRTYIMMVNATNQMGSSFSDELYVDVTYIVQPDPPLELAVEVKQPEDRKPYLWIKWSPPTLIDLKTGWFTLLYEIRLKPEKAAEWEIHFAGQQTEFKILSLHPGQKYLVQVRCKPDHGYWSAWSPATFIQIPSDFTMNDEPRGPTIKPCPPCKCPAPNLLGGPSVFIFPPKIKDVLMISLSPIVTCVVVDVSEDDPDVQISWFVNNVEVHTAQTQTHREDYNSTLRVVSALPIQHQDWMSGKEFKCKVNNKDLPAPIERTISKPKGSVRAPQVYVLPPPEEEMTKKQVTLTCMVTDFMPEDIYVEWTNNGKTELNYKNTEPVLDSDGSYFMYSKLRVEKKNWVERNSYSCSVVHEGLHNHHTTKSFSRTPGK
Assay: Surface plasmon resonance (Biacore T200), mAb-capture format
Type: binding
Conditions: 25° C., antibody-capture format, analyte hPRLR.mFc
Method: Antibodies, expressed as human IgG1 Fc “[…]” designations), were captured onto an anti-human Fc sensor surface (mAb-capture format), and soluble monomeric (hPRLR.mmh; SEQ ID NO:401, or macaca fascicularis (mf) PRLR.mmh; SEQ ID NO:403) or dimeric (hPRLR.mFc; SEQ ID NO:402) PRLR protein was injected over the sensor surface. Measurements were conducted on a T200 Biacore instrument. […]
assayMetric: pKd
Value format note: pKd is -log10 of concentration (mol/L); just state the number.

Quick one: pKd of H1H6795P: anti-PRLR antibody, human IgG1 Fc; HCVR/LCVR SEQ ID NOs 162/170 (antibody, V domains shown, human IgG1 Fc) VH: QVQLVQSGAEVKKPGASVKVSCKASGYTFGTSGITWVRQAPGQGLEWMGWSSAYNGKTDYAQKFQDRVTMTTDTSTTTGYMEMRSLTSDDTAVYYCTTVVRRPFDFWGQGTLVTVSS VL: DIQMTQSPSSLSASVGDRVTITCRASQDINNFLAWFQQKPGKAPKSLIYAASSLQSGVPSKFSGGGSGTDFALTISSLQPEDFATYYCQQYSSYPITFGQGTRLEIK ?
10.26

Also H1H6960N: human IgG1 Fc form of H2M6960N; anti-PRLR; HCVR/LCVR SEQ ID NOs 322/330 (antibody, V domains shown, human IgG1 Fc) VH: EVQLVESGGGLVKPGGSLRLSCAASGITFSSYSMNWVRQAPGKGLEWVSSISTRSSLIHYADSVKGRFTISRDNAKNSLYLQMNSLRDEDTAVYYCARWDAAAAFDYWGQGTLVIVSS VL: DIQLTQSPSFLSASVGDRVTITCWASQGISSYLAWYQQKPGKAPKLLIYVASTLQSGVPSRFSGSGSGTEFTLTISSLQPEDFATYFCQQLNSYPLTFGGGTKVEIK , if possible.
9.85

Please answer likewise for H1H6793P: anti-PRLR antibody, human IgG1 Fc; HCVR/LCVR SEQ ID NOs 146/154 (antibody, V domains shown, human IgG1 Fc) VH: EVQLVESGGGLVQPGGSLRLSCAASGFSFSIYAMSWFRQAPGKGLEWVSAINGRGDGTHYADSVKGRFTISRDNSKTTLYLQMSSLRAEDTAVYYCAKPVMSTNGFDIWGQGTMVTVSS VL: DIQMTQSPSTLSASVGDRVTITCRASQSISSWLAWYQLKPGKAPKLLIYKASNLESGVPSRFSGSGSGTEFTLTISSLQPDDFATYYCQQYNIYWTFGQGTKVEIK
9.48

// same read-out, input: H1H6959N2: human IgG1 Fc form of H2M6959N2; anti-PRLR; HCVR/LCVR SEQ ID NOs 306/314 (antibody, V domains shown, human IgG1 Fc) VH: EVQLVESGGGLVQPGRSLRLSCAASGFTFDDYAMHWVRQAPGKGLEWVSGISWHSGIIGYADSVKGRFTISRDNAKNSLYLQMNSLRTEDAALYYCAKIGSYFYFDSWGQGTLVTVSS VL: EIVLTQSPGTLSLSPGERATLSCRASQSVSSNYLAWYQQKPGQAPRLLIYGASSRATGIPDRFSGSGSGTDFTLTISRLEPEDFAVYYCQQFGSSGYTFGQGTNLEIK
8.84

Cool, now H1H6781P: anti-PRLR antibody, human IgG1 Fc; HCVR/LCVR SEQ ID NOs 50/58 (antibody, V domains shown, human IgG1 Fc) VH: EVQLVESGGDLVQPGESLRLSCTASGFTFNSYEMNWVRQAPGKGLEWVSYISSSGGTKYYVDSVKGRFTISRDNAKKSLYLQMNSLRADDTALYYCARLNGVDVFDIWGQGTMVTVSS VL: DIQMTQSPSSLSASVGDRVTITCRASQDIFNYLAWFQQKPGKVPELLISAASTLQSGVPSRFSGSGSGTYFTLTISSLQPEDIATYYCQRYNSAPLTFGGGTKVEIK
9.63
